- assaySystem: UniProtKB P08164
- Sequence (P08164 2-272 limits assumed): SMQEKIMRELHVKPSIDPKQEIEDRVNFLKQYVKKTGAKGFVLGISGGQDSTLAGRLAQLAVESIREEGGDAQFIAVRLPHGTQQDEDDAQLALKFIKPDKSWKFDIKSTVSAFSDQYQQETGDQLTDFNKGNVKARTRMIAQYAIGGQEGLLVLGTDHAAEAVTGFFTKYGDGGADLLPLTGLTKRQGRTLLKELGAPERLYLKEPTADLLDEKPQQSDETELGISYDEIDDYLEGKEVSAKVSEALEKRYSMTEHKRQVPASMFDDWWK
- methodDescription: biochemical
- Assay type: biochemical
- conditionInfo: compound at 0.2 mM (Table 312A)
resultType: % Inhibition (%)
The reply should be a number in %, with the unit left off.

Worked examples follow.
[[record]]
compound = "CC(C)c1ccc2[nH]c(CCCCCCCC[n+]3ccc4ccccc4c3)cc2c1 [Compound 539]"
assaysystem = "UniProtKB P08164"
measureunit = "%"
endpointvalue = 16.80

[[record]]
compound = "CCCCc1ccc2[nH]c(CCC[n+]3cccc4ccccc43)cc2c1 [Compound 420]"
assaysystem = "UniProtKB P08164"
measureunit = "%"
endpointvalue = 9.16

[[record]]
compound = "O=C(c1ccccc1)c1ccc2[nH]c(CCCC[n+]3ccccc3)cc2c1 [Compound 355]"
assaysystem = "UniProtKB P08164"
measureunit = "%"
endpointvalue = 2.08


Report measured % Inhibition; entry is c1ccc(C(c2ccccc2)(c2ccccc2)c2ccc3[nH]c(CCCCCC[n+]4ccccc4)cc3c2)cc1 [Compound 339]
42.87

Report measured % Inhibition; entry is COC(=O)c1ccc2[nH]c(CCCCCCCC[n+]3ccc4ccccc4c3)cc2c1 [Compound 599]
19.31

Report measured % Inhibition; entry is O=[N+]([O-])c1cc([N+](=O)[O-])c2[nH]c(CCCCC[n+]3ccc4ccccc4c3)cc2c1 [Compound 524]
30.81

Report measured % Inhibition; entry is O=C(O)c1ccc2[nH]c(CCCCCCCC[n+]3ccc4ccccc4c3)cc2c1 [Compound 605]
68.65

Report measured % Inhibition; entry is FC(F)(F)c1ccc2cc(CCCC[n+]3ccc4ccccc4c3)[nH]c2c1 [Compound 505]
25.51

Data credit: patent US6727237B2
